Let's look at some binders and their measured HEK-Blue activity, +100 nM BP, DF-100,000.
Target: T1, interleukin 18 binding protein (IL-18BP) (UniProt O95998 31-194); further: unit not given here
T1 sequence (looked up): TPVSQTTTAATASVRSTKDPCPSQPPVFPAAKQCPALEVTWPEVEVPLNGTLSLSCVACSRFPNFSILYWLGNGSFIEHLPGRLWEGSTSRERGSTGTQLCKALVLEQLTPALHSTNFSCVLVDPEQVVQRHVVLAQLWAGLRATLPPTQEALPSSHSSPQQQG
Assay: cell-based or functional assay
# respond with the number and nothing more

>>> data_value("IL-18 variant K53D, S55Q, H109Y (ligand) YFGKLESKLSVIRNLNDQVLFIDQGNRPLFEDMTDSDMRDNAPRTIFIISMYDDQQPRGMAVTISVKSEKISTLSSENKIISFKEMNPPDNIKDTKSDIIFFQRSVPGYDNKMQFESSSYEGYFLASEKERDLFKLILKKEDELGDRSIMFTVQNED")
0.15

Attention now shifts to the item below.
Query: I would be grateful if you could share the reported HEK-Blue activity, +100 nM BP, DF-100,000 for IL-18 variant K53N, S55Y (ligand) YFGKLESKLSVIRNLNDQVLFIDQGNRPLFEDMTDSDMRDNAPRTIFIISMYNDYQPRGMAVTISVKSEKISTLSSENKIISFKEMNPPDNIKDTKSDIIFFQRSVPGHDNKMQFESSSYEGYFLASEKERDLFKLILKKEDELGDRSIMFTVQNED .
Reply: 0.09
